Settings: in acetone, 298.15 K
measure_name: solubility (mole fraction)
One number for each entry.

Input: I would be grateful if you could share the reported solubility (mole fraction) for O=[N+]([O-])c1cccc2c([N+](=O)[O-])cccc12 .
Output: 0.00164

----------
Settings: in n-propanol, 300.65 K
measure_name: solubility (mole fraction)
One number for each entry.

Input: I would be grateful if you could share the reported solubility (mole fraction) for O=[N+]([O-])c1cccc2c([N+](=O)[O-])cccc12 .
Output: 9.67e-05

----------
Conditions: in acetonitrile, 275.65 K
measure_name: solubility (mole fraction)
Numbers only.

Input: I would be grateful if you could share the reported solubility (mole fraction) for O=[N+]([O-])c1cccc2c([N+](=O)[O-])cccc12 .
Output: 0.000265

----------
Details: in ethanol, 300.65 K
measure_name: solubility (mole fraction)
One number for each entry.

Input: I would be grateful if you could share the reported solubility (mole fraction) for O=[N+]([O-])c1cccc2c([N+](=O)[O-])cccc12 .
Output: 8.74e-05

----------
Conditions: in chloroform, 300.65 K
measure_name: solubility (mole fraction)
Answers are plain numbers.

Input: I would be grateful if you could share the reported solubility (mole fraction) for O=[N+]([O-])c1cccc2c([N+](=O)[O-])cccc12 .
Output: 0.00269

----------
Details: in ethanol, 275.65 K
measure_name: solubility (mole fraction)
Answers are plain numbers.

Input: I would be grateful if you could share the reported solubility (mole fraction) for O=[N+]([O-])c1cccc2c([N+](=O)[O-])cccc12 .
Output: 2.25e-05

----------
Settings: in acetone, 275.65 K
measure_name: solubility (mole fraction)

Input: I would be grateful if you could share the reported solubility (mole fraction) for O=[N+]([O-])c1cccc2c([N+](=O)[O-])cccc12 .
Output: 0.000762

----------
Details: in ethanol, 295.65 K
measure_name: solubility (mole fraction)
Numbers only.

Input: I would be grateful if you could share the reported solubility (mole fraction) for O=[N+]([O-])c1cccc2c([N+](=O)[O-])cccc12 .
Output: 6.94e-05

----------
Conditions: in acetonitrile, 280.65 K
measure_name: solubility (mole fraction)
Answers are plain numbers.

Input: I would be grateful if you could share the reported solubility (mole fraction) for O=[N+]([O-])c1cccc2c([N+](=O)[O-])cccc12 .
Output: 0.000333

----------
Settings: in ethylbenzene, 285.65 K
measure_name: solubility (mole fraction)

Input: I would be grateful if you could share the reported solubility (mole fraction) for O=[N+]([O-])c1cccc2c([N+](=O)[O-])cccc12 .
Output: 0.000863

----------
Settings: in n-propanol, 275.65 K
measure_name: solubility (mole fraction)
One number for each entry.

Input: I would be grateful if you could share the reported solubility (mole fraction) for O=[N+]([O-])c1cccc2c([N+](=O)[O-])cccc12 .
Output: 2.53e-05

----------
Conditions: in toluene, 275.65 K
measure_name: solubility (mole fraction)
Answers are plain numbers.

Input: I would be grateful if you could share the reported solubility (mole fraction) for O=[N+]([O-])c1cccc2c([N+](=O)[O-])cccc12 .
Output: 0.000761

----------
Conditions: in chloroform, 308.15 K
measure_name: solubility (mole fraction)

Input: I would be grateful if you could share the reported solubility (mole fraction) for O=[N+]([O-])c1cccc2c([N+](=O)[O-])cccc12 .
Output: 0.00369

----------
Details: in n-propanol, 305.65 K
measure_name: solubility (mole fraction)
Numbers only.

Input: I would be grateful if you could share the reported solubility (mole fraction) for O=[N+]([O-])c1cccc2c([N+](=O)[O-])cccc12 .
Output: 0.000126

----------
Settings: in toluene, 300.65 K
measure_name: solubility (mole fraction)
Give bare numbers.

Input: I would be grateful if you could share the reported solubility (mole fraction) for O=[N+]([O-])c1cccc2c([N+](=O)[O-])cccc12 .
Output: 0.00205

----------
Settings: in toluene, 278.15 K
measure_name: solubility (mole fraction)
One number for each entry.

Input: I would be grateful if you could share the reported solubility (mole fraction) for O=[N+]([O-])c1cccc2c([N+](=O)[O-])cccc12 .
Output: 0.000858

----------
Settings: in acetone, 283.15 K
measure_name: solubility (mole fraction)

Input: I would be grateful if you could share the reported solubility (mole fraction) for O=[N+]([O-])c1cccc2c([N+](=O)[O-])cccc12 .
Output: 0.000991

----------
Conditions: in ethylbenzene, 293.15 K
measure_name: solubility (mole fraction)
One number for each entry.

Input: I would be grateful if you could share the reported solubility (mole fraction) for O=[N+]([O-])c1cccc2c([N+](=O)[O-])cccc12 .
Output: 0.00116

----------
Conditions: in acetonitrile, 298.15 K
measure_name: solubility (mole fraction)
Numbers only.

Input: I would be grateful if you could share the reported solubility (mole fraction) for O=[N+]([O-])c1cccc2c([N+](=O)[O-])cccc12 .
Output: 0.000741

----------
Details: in toluene, 310.65 K
measure_name: solubility (mole fraction)

Input: I would be grateful if you could share the reported solubility (mole fraction) for O=[N+]([O-])c1cccc2c([N+](=O)[O-])cccc12 .
Output: 0.00287

----------
Settings: in acetone, 310.65 K
measure_name: solubility (mole fraction)
One number for each entry.

Input: I would be grateful if you could share the reported solubility (mole fraction) for O=[N+]([O-])c1cccc2c([N+](=O)[O-])cccc12 .
Output: 0.00229
